The reported measurements were obtained from PubChem BioAssay.

- System: Aerobactin synthetase IucA (Klebsiella pneumoniae)
- EXPERIMENT DESCRIPTION: inhibition of K. pneumoniae IucA enzyme – biochemical, Tocris library, absorbance (AID 1345561);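 also: 100% = enzyme without compound and 0% = no enzyme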
- CONDITIONS: purified IucA enzyme assay, absorbance (OD) read-out; stronger effect = lower value;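 tested at 8 µM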
Active and inactive are the calls of the source. No rule for the calls is given here.
MEASUREMENT LABEL: remaining activity

Example cases with answers are listed next.
{"columns": ["MOLECULE", "remaining activity"],
 "data": [
  ["FC(F)(F)c1cc(CO[C@H]2CCCN[C@H]2c2ccccc2)cc(C(F)(F)F)c1", "112% (inactive)"],
  ["CCCCOC(=O)c1cc2c(cn1)[nH]c1ccccc12", "96.6% (inactive)"],
  ["CCn1c(=O)[nH]c2ccccc21", "111% (inactive)"],
  ["O=C1NN(C(=O)Nc2ccc(Br)cc2)[C@@H](c2ccccc2)[C@@H]1c1ccccc1", "127% (inactive)"]
]}

## Input Given CCC(=O)NC1Cc2ccccc2C(c2ccccc2)C1 (stereo unspecified) , state its recorded remaining activity.
## Output 124% (inactive)

## Input # remaining activity lookup, item `O=C(NC1CCN(Cc2ccccc2)CC1)c1ccc(I)cc1`
## Output 113% (inactive)

## Input Consider the molecule `O=C(N/N=C/c1ccccc1O)c1ccccc1O` and give its measured remaining activity.
## Output 106% (inactive)

## Input Which value of remaining activity has been reported for `NC(=O)CCCCn1ccc(NC(N)=NCC(F)(F)F)n1` in the records?
## Output 98.2% (inactive)

## Input Query (molecule): `COc1ccc(C(=O)Nc2sc3c(c2C(N)=O)CCCC3)cc1OC` ; field requested: remaining activity
## Output 100% (inactive)

## Input So what does the record say about remaining activity for `COc1cc(Br)c(S(=O)(=O)Nc2ccc(Cl)c(O[C@@H]3CCN(C)C3)c2)cc1OC` ?
## Output 112% (inactive)

## Input // query remaining activity value for entry CC(C)NCC(O)COc1ccccc1-n1cccc1 (stereo unspecified)
## Output 99.6% (inactive)
